Target entity: Alpha-2C adrenergic receptor (Homo sapiens)
Assay details: compounds altering alpha2C-coupled GIRK flux – cell-based, HEK293 alpha2C/GIRK1/2, thallium flux, primary screen (AID 624);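 also: slope of fluorescence ratio to pre-addition baseline per second over 15 to 24 s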
Test parameters: thallium flux BTC fluorescence, at 10 µM, actives lie on both sides
Measurement name: slope
Returns: the value as a bare number; no unit string appended.

> print(dat)
                                   compound  measurement.name  quantitative.readout
1  Cc1ccc(-c2noc(CN3CCN(c4ccccc4F)CC3)n2)cc1             slope               0.00746

Consider now this further compound.
So, `CC(=O)Nc1c(O)nc(SCC(=O)Nc2nnc(CC(C)C)s2)[nH]c1=O` ? Its slope was 0.00412

---

Target entity: Voltage-gated potassium channel subunit beta-2 (Rattus norvegicus) (UniProt P62483)
Sequence (P62483 whole entry, looked up): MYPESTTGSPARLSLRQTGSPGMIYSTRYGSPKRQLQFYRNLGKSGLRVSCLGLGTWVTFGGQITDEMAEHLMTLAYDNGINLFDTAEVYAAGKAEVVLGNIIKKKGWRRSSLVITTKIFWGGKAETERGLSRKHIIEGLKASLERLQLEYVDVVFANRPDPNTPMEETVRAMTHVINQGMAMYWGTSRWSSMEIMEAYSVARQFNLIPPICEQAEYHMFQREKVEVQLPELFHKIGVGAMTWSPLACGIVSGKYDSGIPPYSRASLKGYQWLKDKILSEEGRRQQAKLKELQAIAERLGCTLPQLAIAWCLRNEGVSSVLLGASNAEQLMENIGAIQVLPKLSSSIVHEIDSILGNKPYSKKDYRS
Assay details: inhibitors of rat Kvbeta2 reductase activity – biochemical, NADPH fluorescence, primary screen (AID 622);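 also: slope of raw intensity against log time taken from 70 to 1610 s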
Test parameters: recombinant KvBeta, 4-cyanobenzaldehyde reduction, at 10 µM, stronger effect = higher value
Listed next: entries and their corresponding fluorescence slope.
Number only, no unit.

> print(dat)
                                   molecule    measurement.name  quantitative.readout
1  N#Cc1c(NC(=O)c2ccc(Br)o2)n(-c2ccccc2)c2nc3ccccc3nc12  fluorescence slope                -0.502
2  CCCS(=O)(=O)NCCc1cc2cc(C)c(C)cc2[nH]c1=O  fluorescence slope                -0.587
3  CCOc1ccc(C2CC(c3cccc(C)c3)n3ncnc3N2)cc1 (centres undefined)  fluorescence slope                -0.622
4  Nc1c(C(=O)NCCN2CCOCC2)c2nc3ccccc3nc2n1-c1ccc2c(c1)OCO2  fluorescence slope                -0.348
5  CCOC(=O)c1cnc(-n2cc(C)cn2)nc1Nc1ccccc1OC  fluorescence slope                -0.641

fluorescence slope in this record for `CCOC(=O)CN(C(=O)CSc1nnc(-c2ccncc2)n1CCCN(C)C)c1ccccc1` : -0.615

Input Cc1ccnc2c(N3C(=O)C4C5C=CC(C5)C4(C)C3=O)cccc12 (centres undefined) . Output fluorescence slope: -0.556

---

Assay details: inhibitors of TNFa-induced NFkB p65 translocation, primary screen, imaging, HUVEC, MLSMR starter and 10KST1 sets (AID 438);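 also: compound added about 3h40 before a 20 min TNFalpha stimulation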
Test parameters: HUVEC TNFa-induced p65 nuclear translocation; measured here: nuclei count (cytotoxicity indicator), at 2.08 µM
Measurement name: cell count
Respond using a number only.

> print(dat)
                                    compound  quantitative.readout
 1    Nn1c(SCC(=O)Nc2ccc(F)cc2)nnc1-c1cccnc1                    74
 2                     CCc1nc(C)ccc1OCC(=O)O                   332
 3            CC(=O)n1cc(-c2ccncc2)c2ccccc21                   474
 4  COc1ccc(C)cc1NS(=O)(=O)c1ccc(NS(=O)(=O)c2ccc(NC(C)=O)cc2)cc1                   345
 5  COC(=O)C(C)NC(=O)C12CC3CC(CC(C3)C1)C2 (stereo unspecified)                   512
 6           COc1ccccc1OCCCn1c(=O)oc2ccccc21                   219
 7  COc1cccc(NC(=O)N[C@@H](Cc2ccccc2)C(=O)O)c1                   565
 8  O=C(NCc1ccco1)c1ccc2c(=O)n(CC3CCCO3)c(=S)[nH]c2c1 (stereo unspecified)                   318
 9  Cc1ccc(C)c(N2CCN(C(=O)CCCn3c(=S)[nH]c4cc5c(cc4c3=O)OCO5)CC2)c1                   494
10       Brc1ccc(-c2csc(/N=C/N3CCOCC3)n2)cc1                   531

Consider now this further compound.
Kindly note the recorded cell count for O=C(NC1CCCC1)C(c1cccs1)N(C(=O)c1ccno1)c1ccccc1 (stereo unspecified) , which is 648
